# Tested on: T. cruzi Tulahuen strain expressing β-galactosidase
# EXPERIMENT: anti-T. cruzi dose-response growth inhibition assay (Vero cells plus trypomastigotes, CPRG readout)
# Type: cell-based
# EXPERIMENTAL CONDITIONS: Trypanosoma cruzi, TULAHUEN, Vero; anti-T. cruzi IC50 of non-progressed compounds; read-out: Dose-response assay IC50
ENDPOINT: pIC50
pIC50 is a log-scale quantity: -log10 of the concentration expressed in molar.

1. CC(C)(C)Nc1ncnc2c1nc(-c1ccccc1)n2C(C)(C)C; 4.17

Just so you know, measured pIC50 for c1ccc(COc2ncnc3c2ncn3Cc2ccccc2)cc1 came out at 4.75

* * *

# Test system: P. falciparum 3D7
# EXPERIMENT: P. falciparum dose-response growth inhibition assay (FACS, SYTO 11)
# Type: cell-based
# EXPERIMENTAL CONDITIONS: Plasmodium falciparum, 3D7, 48 h, P. falciparum 3D7, 48 h; mean (SD)
pIC50: −log10 of the molar value.
ENDPOINT: pIC50

1) CC(C)(C)n1c(-c2ccccc2)nc2c(OCc3ccccc3)ncnc21; 4.72
2) c1ccc(-c2nc3c(OCc4cn(Cc5cscn5)nn4)ncnc3n2N2CCCCC2)cc1; ~4.70

Note: attention shifts to another entry.
Value of measured pIC50 for the entry COc1ccccc1-n1cc(COc2ncnc3c2nc(-c2ccccc2)n3N(C)C)nn1 : ~4.70

Just for reference, paper PMC8308784 is where these values come from.
